Reference for the values: ChEMBL document CHEMBL1129001

Reported pIC50 values follow for various compounds
# Measurement target: Prostaglandin G/H synthase 1 (Rattus norvegicus, UniProt Q63921)
# Sequence (Q63921 whole entry): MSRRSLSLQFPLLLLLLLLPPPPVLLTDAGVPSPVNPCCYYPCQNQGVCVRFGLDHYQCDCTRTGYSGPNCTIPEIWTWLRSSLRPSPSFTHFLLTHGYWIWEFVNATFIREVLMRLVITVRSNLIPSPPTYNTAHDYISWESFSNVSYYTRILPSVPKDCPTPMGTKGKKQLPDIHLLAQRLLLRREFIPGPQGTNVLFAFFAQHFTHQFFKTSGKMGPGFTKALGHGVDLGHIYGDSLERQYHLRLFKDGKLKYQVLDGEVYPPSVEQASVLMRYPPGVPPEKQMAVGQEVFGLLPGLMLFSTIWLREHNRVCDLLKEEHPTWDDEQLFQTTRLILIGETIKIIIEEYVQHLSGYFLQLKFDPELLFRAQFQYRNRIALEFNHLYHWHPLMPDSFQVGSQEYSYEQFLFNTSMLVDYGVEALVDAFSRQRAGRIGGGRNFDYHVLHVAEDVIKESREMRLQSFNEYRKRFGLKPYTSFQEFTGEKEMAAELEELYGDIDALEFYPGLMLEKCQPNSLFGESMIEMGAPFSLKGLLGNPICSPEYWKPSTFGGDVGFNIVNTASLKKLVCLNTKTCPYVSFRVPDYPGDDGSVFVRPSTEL
pIC50: −log10 of the molar value.
Property label: pIC50

{"Compound": "COc1ccc2c(c1)c(CC(C)C(=O)O)c(C)n2Cc1ccc(Br)cc1 (stereo not given)", "Property label": "pIC50", "Result": "< 4.30"}
{"Compound": "COc1ccc2c(c1)c(CC(C)CC(=O)O)c(C)n2Cc1ccc(Br)cc1 (stereo not given)", "Property label": "pIC50", "Result": "< 5.00"}
{"Compound": "COc1ccc2c(c1)c(CC(=O)O)c(C)n2Cc1ccc(Br)cc1", "Property label": "pIC50", "Result": 4.39}
{"Compound": "COc1ccc2c(c1)c(CCCC(=O)O)c(C)n2Cc1ccc(Br)cc1", "Property label": "pIC50", "Result": "< 4.30"}
{"Compound": "COc1ccc2c(c1)c(C(C)CC(=O)O)c(C)n2Cc1ccc(Br)cc1 (stereo not given)", "Property label": "pIC50", "Result": "< 4.30"}
